- METHOD_NOTES: Sorafenib pharmacokinetic analysis (plasma concentrations, Bayesian estimation of AUC and Cav)
- Format: in vivo, human
- SETUP_CONDITIONS: human, plasma, Cumulated sorafenib AUC, day 0 to day 30; patients with Hand Foot Skin Reaction ≥ grade 2; median [interquartile range]
READOUT_NAME: AUC at 720 h (µg·h/mL)
Answers are plain numbers, in µg·h/mL.

What value of measured AUC at 720 h is listed for "CNC(=O)c1cc(Oc2ccc(NC(=O)Nc3ccc(Cl)c(C(F)(F)F)c3)cc2)ccn1" ? 3310

* * *

- METHOD_NOTES: Sorafenib pharmacokinetic analysis (plasma concentrations, Bayesian estimation of AUC and Cav)
- Type: in vivo, human
- SETUP_CONDITIONS: human, plasma, median absolute sorafenib AUC, day 30; all patients; median [interquartile range]
READOUT_NAME: AUC tau at 720 h (ng·h/mL)
Answers are plain numbers, in ng·h/mL.

What value of measured AUC tau at 720 h is listed for "CNC(=O)c1cc(Oc2ccc(NC(=O)Nc3ccc(Cl)c(C(F)(F)F)c3)cc2)ccn1" ? 61000
